Tested on: Hep 3B2
Test Protocol: Cytotoxicity against human Hep3B cells assessed as reduction in cell viability by MTT assay
Assay type: functional, cell-based
pIC50: −log10 of the molar value.
Readout: pIC50

>>> reported("COc1ccccc1-c1csc2nc(-c3cn4c5c(c(N6CCN(C)CC6)c(F)cc5c3=O)OCC4C)nn12 (stereo unspecified)")
"4.25 to 5.44"
>>> reported("CCn1cc(-c2nc(SCc3nnc(-c4cccc(C)c4)o3)n(CN(C)C)n2)c(=O)c2cc(F)c(N3CCN(C)CC3)cc21")
"4.61 to 5.82"
>>> reported("CCn1cc(-c2nc(SCc3nnc(-c4ccccc4)o3)n(CN(C)C)n2)c(=O)c2cc(F)c(N3CCN(C)CC3)cc21")
"4.61 to 5.82"
>>> reported("CCn1cc(-c2nc(SCc3nnc(-c4ccccc4OC)o3)n(CN(C)C)n2)c(=O)c2cc(F)c(N3CCN(C)CC3)cc21")
"4.61 to 5.82"
>>> reported("CC1COc2c(N3CCN(C)CC3)c(F)cc3c(=O)c(-c4nc5scc(-c6ccccc6)n5n4)cn1c23 (stereo unspecified)")
"4.25 to 5.44"
>>> reported("CCn1cc(-c2nc3scc(-c4ccc(Cl)cc4)n3n2)c(=O)c2cc(F)c(N3CCN(C)CC3)cc21")
"4.25 to 5.44"
>>> reported("CCn1cc(-c2nc(SCc3nnc(-c4ccc(OC)cc4)o3)n(CN(C)C)n2)c(=O)c2cc(F)c(N3CCN(C)CC3)cc21")
"4.61 to 5.82"
>>> reported("CC1COc2c(N3CCN(C)CC3)c(F)cc3c(=O)c(-c4nc5scc(-c6ccccc6O)n5n4)cn1c23 (stereo unspecified)")
"4.25 to 5.44"
>>> reported("CCn1cc(-c2nnc(SCc3nnc(-c4ccc(F)cc4)o3)[nH]2)c(=O)c2cc(F)c(N3CCN(C)CC3)cc21")
"4.45 to 5.42"
>>> reported("COc1ccc(-c2csc3nc(-c4cn5c6c(c(N7CCN(C)CC7)c(F)cc6c4=O)OCC5C)nn23)cc1OC (stereo unspecified)")
"4.27 to 4.45"
>>> reported("O=C(O)c1cn(C2CC2)c2cc(N3CCNCC3)c(F)cc2c1=O")
"< 4.00"
>>> reported("CCn1cc(-c2nc(SCc3nnc(-c4ccc([N+](=O)[O-])cc4)o3)n(CN(C)C)n2)c(=O)c2cc(F)c(N3CCN(C)CC3)cc21")
"4.61 to 5.82"
>>> reported("CCn1cc(-c2nnc(SCc3nnc(-c4ccc(OC)c(OC)c4)o3)[nH]2)c(=O)c2cc(F)c(N3CCN(C)CC3)cc21")
"4.45 to 5.42"
>>> reported("Cc1ccc(-c2csc3nc(-c4cn5c6c(c(N7CCN(C)CC7)c(F)cc6c4=O)OCC5C)nn23)cc1 (stereo unspecified)")
"4.25 to 5.44"
>>> reported("CCn1cc(-c2nc3scc(-c4ccc(F)cc4)n3n2)c(=O)c2cc(F)c(N3CCN(C)CC3)cc21")
"4.25 to 5.44"
>>> reported("CCn1cc(-c2nc(SCc3nnc(-c4ccc(F)cc4)o3)n(CN(C)C)n2)c(=O)c2cc(F)c(N3CCN(C)CC3)cc21")
"5.28 to 5.82"

---

Subject Of Test: Apoptosis regulator BAX (Homo sapiens)
Sequence (Q07812 whole entry): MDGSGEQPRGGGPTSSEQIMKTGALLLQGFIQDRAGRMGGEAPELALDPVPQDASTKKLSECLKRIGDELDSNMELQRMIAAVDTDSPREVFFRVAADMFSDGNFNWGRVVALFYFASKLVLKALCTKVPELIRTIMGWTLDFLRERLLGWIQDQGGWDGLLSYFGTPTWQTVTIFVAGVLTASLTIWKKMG
Test Protocol: Activation of Bax in human SMMC7721 cells
Readout: IC50

>>> reported("O=C(N/N=C/c1ccc2c(c1)OCO2)c1cn(C2CC2)c2cc(N3CCNCC3)c(F)cc2c1=O")
"3 to 7.39 µM"

---

Each record here notes measured IC50.
Test system: MCF7
Test Protocol: Cytotoxicity against human MCF7 cells assessed as reduction in cell viability by MTT assay
Format: functional, cell-based
Readout: IC50

>>> reported("CCn1cc(C(=O)O)c(=O)c2cc(F)c(N3CCN(CC(=O)c4ccc(Cl)s4)CC3)nc21")
"≥ 100 µM"
>>> reported("CCn1cc(C(=O)O)c(=O)c2cc(F)c(N3CCN(C/C(=N/O)c4cccs4)CC3)nc21")
"2 to 131 µM"
>>> reported("O=C(O)c1cn(C2CC2)c2cc(N3CCN(C/C(=N/OCc4ccccc4)c4ccc(Cl)s4)CC3)c(F)cc2c1=O")
"≤ 20 µM"
>>> reported("CCn1cc(C(=O)O)c(=O)c2cc(F)c(N3CCN(C/C(=N/O)c4ccc(Cl)s4)CC3)nc21")
"≤ 20 µM"
>>> reported("CCn1cc(C(=O)O)c(=O)c2cc(F)c(N3CCNCC3)nc21 [ENOXACIN]")
"137 to 238 µM"
>>> reported("CCn1cc(C(=O)O)c(=O)c2cc(F)c(N3CCN(CC(=O)c4ccc(Cl)s4)CC3)cc21")
"≥ 100 µM"
>>> reported("CCn1cc(C(=O)O)c(=O)c2cc(F)c(N3CCN(C/C(=N/OC)c4cccs4)CC3)cc21")
"2 to 131 µM"
>>> reported("CCn1cc(C(=O)O)c(=O)c2cc(F)c(N3CCN(C/C(=N/OCc4ccccc4)c4cccs4)CC3)nc21")
"2 to 131 µM"
>>> reported("CCn1cc(C(=O)O)c(=O)c2cc(F)c(N3CCN(C/C(=N/OC)c4ccc(Cl)s4)CC3)cc21")
"≤ 20 µM"

---

Tested on: L1210
Test Protocol: Cytotoxicity against mouse L1210 cells assessed as reduction in cell viability after 24 to 72 hrs by MTT assay
Type: functional, cell-based
Readout: IC50

>>> reported("CCOC(=O)c1cn(CC)c2c(ccc3n[se]nc32)c1=O")
"≤ 100 µM"

---

Tested on: A549
Test Protocol: Antiproliferative activity against human A549 cells after 72 hrs by MTT assay
Type: functional, cell-based
Test Context: A549, 72 h
pIC50: −log10 of the molar value.
Each record here notes measured pIC50.
Readout: pIC50

>>> reported("N=C(NS(=O)(=O)c1cccc(Cl)c1)N1CCN(c2cc3c(cc2F)c(=O)c(C(=O)O)cn3C2CC2)CC1")
"6.79 to 7.49"
>>> reported("CCn1cc(C(=O)O)c(=O)c2cc(F)c(N3CCN(C(=N)NS(=O)(=O)c4ccccc4)CC3)cc21")
"6.79 to 7.49"
>>> reported("CCn1cc(C(=O)O)c(=O)c2cc(F)c(N3CCN(C(=N)NS(=O)(=O)c4ccccc4C(F)(F)F)CC3)cc21")
"6.79 to 7.49"
>>> reported("N=C(NS(=O)(=O)c1ccccc1)N1CCN(c2cc3c(cc2F)c(=O)c(C(=O)O)cn3C2CC2)CC1")
"6.79 to 7.49"
>>> reported("N=C(NS(=O)(=O)c1ccccc1Cl)N1CCN(c2cc3c(cc2F)c(=O)c(C(=O)O)cn3C2CC2)CC1")
"7.10 to 7.49"

---

Each record here notes measured IC50.
System: HL-60
Test Protocol: Antiproliferative activity against human HL60 cells after 72 hrs by MTT assay
Assay type: functional, cell-based
Test Context: HL-60, 72 h
Readout: IC50

>>> reported("N=C(NS(=O)(=O)c1cccc(C(F)(F)F)c1)N1CCN(c2cc3c(cc2F)c(=O)c(C(=O)O)cn3-c2ccc(F)cc2F)CC1")
"18 nM"
>>> reported("N=C(NS(=O)(=O)c1ccc(Cl)cc1)N1CCN(c2cc3c(cc2F)c(=O)c(C(=O)O)cn3C2CC2)CC1")
"32 to 161 nM"
>>> reported("N=C(NS(=O)(=O)c1ccccc1Cl)N1CCN(c2cc3c(cc2F)c(=O)c(C(=O)O)cn3C2CC2)CC1")
"32 to 79 nM"
>>> reported("Cc1ccc(S(=O)(=O)NC(=N)N2CCN(c3cc4c(cc3F)c(=O)c(C(=O)O)cn4C3CC3)CC2)cc1")
"32 to 161 nM"
>>> reported("CCn1cc(C(=O)O)c(=O)c2cc(F)c(N3CCN(C(=N)NS(=O)(=O)c4ccccc4)CC3)cc21")
"32 to 161 nM"
>>> reported("CCc1c2c(nc3ccc(OC(=O)N4CCC(N5CCCCC5)CC4)cc13)-c1cc3c(c(=O)n1C2)COC(=O)[C@]3(O)CC")
"32 to 44 nM"
>>> reported("N=C(NS(=O)(=O)c1ccccc1C(F)(F)F)N1CCN(c2cc3c(cc2F)c(=O)c(C(=O)O)cn3C2CC2)CC1")
"32 to 161 nM"

---

System: KB
Test Protocol: Cytotoxicity against human KB cells assessed as reduction in cell viability after 72 hrs by MTT assay
Format: functional, cell-based
Readout: IC50

>>> reported("O=C(O)c1cn(C2CC2)c2cc(N3CCN(C/C(=N/O)c4ccco4)CC3)c(F)cc2c1=O")
"> 100 µM"
>>> reported("O=C(O)c1cn(C2CC2)c2cc(N3CCN(C/C(=N/OCc4ccc(Cl)cc4)c4ccco4)CC3)c(F)cc2c1=O")
"≤ 10 µM"
>>> reported("CCn1cc(C(=O)O)c(=O)c2cc(F)c(N3CCN(C/C(=N/O)c4ccco4)CC3)cc21")
"> 100 µM"
>>> reported("CCn1cc(C(=O)O)c(=O)c2cc(F)c(N3CCN(C/C(=N/OC)c4ccco4)CC3)cc21")
"> 100 µM"
>>> reported("CO/N=C(/CN1CCN(c2cc3c(cc2F)c(=O)c(C(=O)O)cn3C2CC2)CC1)c1ccco1")
"> 100 µM"
>>> reported("CCn1cc(C(=O)O)c(=O)c2cc(F)c(N3CCN(C/C(=N/OCc4ccccc4)c4ccco4)CC3)cc21")
"≤ 10 µM"
>>> reported("N=c1c(-c2nn3c(-c4cn(C5CC5)c5cc(N6CCNCC6)c(F)cc5c4=O)nnc3s2)cn(C2CC2)c2cc(N3CCNCC3)c(F)cc12")
"≤ 10 µM"
>>> reported("CCn1cc(C(=O)O)c(=O)c2cc(F)c(N3CCN(C/C(=N/OCc4ccc(Cl)cc4)c4ccco4)CC3)cc21")
"≤ 10 µM"
>>> reported("O=C(O)c1cn(C2CC2)c2cc(N3CCN(C/C(=N/OCc4ccc(Cl)cc4)c4cccs4)CC3)c(F)cc2c1=O")
"≤ 10 µM"
